assay: Kinetic assay of purified DAOCS with penicillin N as main substrate; assay type: biochemical; conditions: for penicillin N; 0.5 μg purified DAOCS, 30° C., 10 minutes; triplicate, Hanes-Woolf Plot
A collection of molecules and their measured Km
Recorded Endpoint: Km (µM)

molecule="YS59: mutated penicillin expandase (DAOCS) with substitution G79E (protein, UniProt P18548 1-311, looked up, variant G79E) Deacetoxycephalosporin C …: MDTTVPTFSLAELQQGLHQDEFRRCLRDKGLFYLTDCGLTDTELKSAKDLVIDFFEHGSEAEKRAVTSPVPTMRRGFTELESESTAQITNTGSYSDYSMCYSMGTADNLFPSGDFERIWTQYFDRQYTASRAVAREVLRATGTEPDGGVEAFLDCEPLLRFRYFPQVPEHRSAEEQPLRMAPHYDLSMVTLIQQTPCANGFVSLQAEVGGAFTDLPYRPDAVLVFCGAIATLVTGGQVKAPRHHVAAPRRDQIAGSSRTSSVFFLRPNADFTFSVPLARECGFDVSLDGETATFQDWIGGNYVNIRRTSKA" observed=9
molecule="YS69: mutated penicillin expandase (DAOCS) with substitution M188I (protein, UniProt P18548 1-311, looked up, variant M188I) Deacetoxycephalosporin C …: MDTTVPTFSLAELQQGLHQDEFRRCLRDKGLFYLTDCGLTDTELKSAKDLVIDFFEHGSEAEKRAVTSPVPTMRRGFTGLESESTAQITNTGSYSDYSMCYSMGTADNLFPSGDFERIWTQYFDRQYTASRAVAREVLRATGTEPDGGVEAFLDCEPLLRFRYFPQVPEHRSAEEQPLRMAPHYDLSIVTLIQQTPCANGFVSLQAEVGGAFTDLPYRPDAVLVFCGAIATLVTGGQVKAPRHHVAAPRRDQIAGSSRTSSVFFLRPNADFTFSVPLARECGFDVSLDGETATFQDWIGGNYVNIRRTSKA" observed=11
molecule="EC12: mutated penicillin expandase (DAOCS) with substitution L277Q (protein, UniProt P18548 1-311, looked up, variant L277Q) Deacetoxycephalosporin C …: MDTTVPTFSLAELQQGLHQDEFRRCLRDKGLFYLTDCGLTDTELKSAKDLVIDFFEHGSEAEKRAVTSPVPTMRRGFTGLESESTAQITNTGSYSDYSMCYSMGTADNLFPSGDFERIWTQYFDRQYTASRAVAREVLRATGTEPDGGVEAFLDCEPLLRFRYFPQVPEHRSAEEQPLRMAPHYDLSMVTLIQQTPCANGFVSLQAEVGGAFTDLPYRPDAVLVFCGAIATLVTGGQVKAPRHHVAAPRRDQIAGSSRTSSVFFLRPNADFTFSVPQARECGFDVSLDGETATFQDWIGGNYVNIRRTSKA" observed=11
molecule="YS71: mutated penicillin expandase (DAOCS) with substitution A106T (protein, UniProt P18548 1-311, looked up, variant A106T) Deacetoxycephalosporin C …: MDTTVPTFSLAELQQGLHQDEFRRCLRDKGLFYLTDCGLTDTELKSAKDLVIDFFEHGSEAEKRAVTSPVPTMRRGFTGLESESTAQITNTGSYSDYSMCYSMGTTDNLFPSGDFERIWTQYFDRQYTASRAVAREVLRATGTEPDGGVEAFLDCEPLLRFRYFPQVPEHRSAEEQPLRMAPHYDLSMVTLIQQTPCANGFVSLQAEVGGAFTDLPYRPDAVLVFCGAIATLVTGGQVKAPRHHVAAPRRDQIAGSSRTSSVFFLRPNADFTFSVPLARECGFDVSLDGETATFQDWIGGNYVNIRRTSKA" observed=13
molecule="YS103: mutated penicillin expandase (DAOCS) with substitution M188V (protein, UniProt P18548 1-311, looked up, variant M188V) Deacetoxycephalosporin C …: MDTTVPTFSLAELQQGLHQDEFRRCLRDKGLFYLTDCGLTDTELKSAKDLVIDFFEHGSEAEKRAVTSPVPTMRRGFTGLESESTAQITNTGSYSDYSMCYSMGTADNLFPSGDFERIWTQYFDRQYTASRAVAREVLRATGTEPDGGVEAFLDCEPLLRFRYFPQVPEHRSAEEQPLRMAPHYDLSVVTLIQQTPCANGFVSLQAEVGGAFTDLPYRPDAVLVFCGAIATLVTGGQVKAPRHHVAAPRRDQIAGSSRTSSVFFLRPNADFTFSVPLARECGFDVSLDGETATFQDWIGGNYVNIRRTSKA" observed=47
